The values you see were collected from ChEMBL document CHEMBL1765084.

procedure text: Ratio of permeability from basolateral to apical side over apical to basolateral side in human Caco2 cells
setup conditions: Caco-2
observation type: efflux ratio

molecule=O=C1CC(=O)N(CCCCc2ccccc2)C(=O)N1CCCCc1ccccc1 observation_type="efflux ratio" obs_value=3.3

====

system under test: UniProt Q12809
Sequence (Q12809 whole entry): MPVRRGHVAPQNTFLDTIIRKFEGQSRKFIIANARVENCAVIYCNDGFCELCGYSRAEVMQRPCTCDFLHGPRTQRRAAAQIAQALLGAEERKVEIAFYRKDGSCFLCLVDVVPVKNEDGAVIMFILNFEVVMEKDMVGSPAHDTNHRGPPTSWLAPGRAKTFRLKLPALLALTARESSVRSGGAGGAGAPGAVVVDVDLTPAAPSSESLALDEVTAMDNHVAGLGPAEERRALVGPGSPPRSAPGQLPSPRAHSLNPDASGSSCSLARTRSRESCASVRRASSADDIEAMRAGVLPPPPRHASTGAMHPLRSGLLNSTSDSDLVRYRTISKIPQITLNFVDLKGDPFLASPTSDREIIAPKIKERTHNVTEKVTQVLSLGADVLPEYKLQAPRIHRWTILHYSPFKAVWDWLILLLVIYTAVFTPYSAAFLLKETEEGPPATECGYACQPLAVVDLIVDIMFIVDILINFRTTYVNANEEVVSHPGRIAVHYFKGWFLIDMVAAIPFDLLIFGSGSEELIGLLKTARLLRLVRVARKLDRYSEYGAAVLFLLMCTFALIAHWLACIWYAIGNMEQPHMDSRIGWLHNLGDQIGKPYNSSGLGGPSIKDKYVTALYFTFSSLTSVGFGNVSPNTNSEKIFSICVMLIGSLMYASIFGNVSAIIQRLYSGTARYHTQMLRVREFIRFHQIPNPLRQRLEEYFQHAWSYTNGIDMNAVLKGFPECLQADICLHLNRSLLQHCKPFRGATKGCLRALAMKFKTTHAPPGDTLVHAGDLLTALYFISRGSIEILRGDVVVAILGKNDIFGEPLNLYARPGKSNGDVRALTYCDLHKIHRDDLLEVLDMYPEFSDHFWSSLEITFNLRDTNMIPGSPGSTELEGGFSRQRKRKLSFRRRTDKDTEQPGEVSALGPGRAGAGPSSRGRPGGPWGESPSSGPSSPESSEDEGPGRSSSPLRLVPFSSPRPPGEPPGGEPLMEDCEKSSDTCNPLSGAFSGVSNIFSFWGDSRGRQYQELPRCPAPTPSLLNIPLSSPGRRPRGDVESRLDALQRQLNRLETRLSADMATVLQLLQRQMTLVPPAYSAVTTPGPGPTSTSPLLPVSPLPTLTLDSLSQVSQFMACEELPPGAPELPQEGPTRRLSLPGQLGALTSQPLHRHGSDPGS
procedure text: Inhibition of human ERG in cells at 10 uM by patch clamp assay relative to control
setup conditions: cells expressing human ERG
observation type: inhibition at 10 µM (%)

molecule=O=C1CC(=O)N(CCc2ccccc2)C(=O)N1CCc1ccccc1 obs_value=4.9

====

system under test: Cytochrome P450 2C9 (Homo sapiens)
Sequence (P11712 whole entry): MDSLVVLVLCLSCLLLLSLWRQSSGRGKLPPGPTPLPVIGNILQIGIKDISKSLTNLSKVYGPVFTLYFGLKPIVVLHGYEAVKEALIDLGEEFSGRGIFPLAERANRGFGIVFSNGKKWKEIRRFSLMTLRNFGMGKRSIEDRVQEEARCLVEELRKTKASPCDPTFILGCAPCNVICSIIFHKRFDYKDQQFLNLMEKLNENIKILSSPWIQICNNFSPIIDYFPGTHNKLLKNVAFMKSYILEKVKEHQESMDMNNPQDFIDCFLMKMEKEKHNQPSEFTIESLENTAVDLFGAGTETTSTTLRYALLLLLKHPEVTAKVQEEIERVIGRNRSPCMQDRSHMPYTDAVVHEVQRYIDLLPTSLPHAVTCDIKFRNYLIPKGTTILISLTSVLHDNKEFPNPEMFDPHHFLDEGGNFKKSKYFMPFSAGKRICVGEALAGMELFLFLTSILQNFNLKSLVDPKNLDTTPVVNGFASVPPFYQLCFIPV
pIC50: −log10 of the molar value.
observation type: pIC50

molecule=O=C1CC(=O)N(CCc2ccccc2)C(=O)N1CCc1ccccc1 obs_value="< 4.30"
